System: MALME-3M melanoma
assay: NCI tumour cell line growth inhibition, 48 h
quantity: TGI

Answered examples (2):
# structure smiles string, result
rows = [
    ("Oc1cc(F)cc2cccnc12", "> 100 µM"),
    ("Cc1ccc(S(=O)(=O)Nc2cc(=O)[nH]c3c2CCC3)cc1", "> 100 µM"),
]

Query molecule follows.
(Q) Under MALME-3M melanoma: report TGI of COC(=O)c1ccc(N/C=C(/C#N)c2ccsc2)cc1 .
(A) 36.2 µM

###

Tested on: SK-OV-3 ovarian
assay: NCI tumour cell line growth inhibition, 48 h
Peptide text beside a SMILES is read from it. * marks the point of attachment. Cbz = O=C(OCc1ccccc1)*
quantity: TGI

# compound, TGI
rows = [
    ("COc1cc2cc[n+](C)c(Cc3ccc(Oc4cc(Cc5c6cc(OC)c(OC)cc6cc[n+]5C)ccc4OC)cc3)c2cc1OC", "> 100 µM"),
    ("C=CCC(O)c1cc(OC)ccc1OC (centres undefined)", "> 100 µM"),
]

I have 7 compounds here; please give me TGI for each one.
1. Cc1cc(=O)[nH]c(S(=O)(=O)NC(=O)Nc2cccc(Cl)c2)n1
2. C=C(CN(C)C)C(=O)c1ccccc1Cl
3. C#CCOCn1cnc2c(N)ncnc21
4. Clc1ccc(C2=Cc3nc2c(-c2ccccc2)c2ccc([nH]2)c(-c2ccccc2)c2nc(c(-c4ccccc4)c4ccc([nH]4)c3-c3ccccc3)C=C2)cc1
5. O=c1[nH]nc(Cc2ccc(Cl)cc2)n1CCO
6. CCOC(=O)CCC(NC(=O)CNC(=O)CNC(=O)C(CCC(=O)OCC)NC(=O)C(CCC(=O)OCC)NC(=O)C(CCC(=O)OCC)NC(=O)OCc1ccccc1)C(=O)NC(CCC(=O)OCC)C(=O)NC(CCC(=O)OCC)C(=O)OCC (centres undefined) (Cbz-E(OEt)E(OEt)E(OEt)GGE(OEt)E(OEt)E(OEt)-OEt; configuration not given here)
7. COc1ccc(-n2nc(C(=O)NCC(=O)Nc3nc4cc(OC)ccc4s3)c3ccccc3c2=O)cc1

(A)
1: > 100 µM; 2: > 100 µM; 3: > 100 µM; 4: > 62.5 µM; 5: > 100 µM; 6: > 75 µM; 7: 4.93 µM

I have 6 compounds here; please give me TGI for each one.
1. COc1cc(CO)cc2c1[nH]c1ccccc12
2. COc1cc2c(cc1OC)C(Cc1cc(Br)c(OC)c(OC)c1)=[N+](C)CC2
3. CCCCCC/C=C\CCCCCCCCCc1cccc(OC)c1O
4. COc1ccc(/C=C\c2cc(OC)c(OC)c(OC)c2)cc1N/C=C\C(=O)c1c[nH]c2ccccc12
5. O[C@]12c3ccccc3C1CCCC2N1CCOCC1 (some centres undefined)
6. CCSc1nc(N)c(C#N)c(-c2ccc(OC)c(OC)c2)c1C#N

(A)
1: > 25 µM; 2: > 100 µM; 3: > 100 µM; 4: > 100 µM; 5: > 100 µM; 6: > 50 µM

###

Test system: SW-620 colon
assay: NCI tumour cell line growth inhibition, 48 h
quantity: TGI

# compound, TGI
data = [
    ("COc1cc(/C=C/C(=O)N[C@@H]2C(=O)N3[C@@H]2SC(C)(C)[C@@H]3C(=O)O)ccc1O", "> 100 µM"),
    ("COc1cccc(C=C(C#N)C#N)c1OC", "> 100 µM"),
]

I have 3 compounds here; please give me TGI for each one.
1. C=CCC(O)c1cc(OC)ccc1OC (stereo not given)
2. CSc1ccc(NC(=O)CCl)cc1
3. Cc1ccc(C2SCc3nc4ccccc4n32)cc1 (stereo not given)

(A)
["> 100 µM", "> 10 µM", "> 100 µM"]

###

System: HCC-2998 colon
assay: NCI tumour cell line growth inhibition, 48 h
Record form. Attribute: TGI. Fill in for each entry.
Numbers only, in µM.

# structure smiles string, assay system, readout unit, TGI
data = [
    ("O=C1CCCc2cc3c(cc21)CC1(C3)Cc2cc3c(cc2C1)C(=O)CCC3", "HCC-2998 colon", "µM", 10.4),
    ("CCN(CC)CCOc1ccccc1-n1c(C)ccc1-c1ccccc1", "HCC-2998 colon", "µM", 28.5),
]

Query compound follows.
(Q) Under HCC-2998 colon: report TGI of Cc1cc(=O)[nH]c(Sc2ccc([N+](=O)[O-])cc2[N+](=O)[O-])n1 .
(A) 30.6

###

Record form. Attribute: TGI. Fill in for each entry.
Tested on: COLO 205 colon
assay: NCI tumour cell line growth inhibition, 48 h
Numbers only, in µM.

# structure smiles string, TGI / µM
rows = [
    ("Cc1[nH]c2[nH]c(=S)nc(NC(N)=S)c2c1Cc1ccccc1", 34),
]

Query molecule follows.
(Q) Under COLO 205 colon: report TGI of O=C1/C(=C/c2ccc([N+](=O)[O-])cc2)Sc2scc(-c3cccc([N+](=O)[O-])c3)[n+]21 .
(A) 3.69

###

Tested on: PC-3 prostate
assay: NCI tumour cell line growth inhibition, 48 h; in the data active = GI50 below about 0.43 µM; inactive = the rest
Result category, one only: 1 = active, 0 = inactive

# compound, category
records = [
    ("N#Cc1cc2c(=S)[nH]c(=S)[nH]c2nc1SCc1ccccc1", 0),
    ("COc1ccc(C#CC2=C(Br)C(=O)OC2)cc1", 0),
    ("Nc1nc(N)c2cc(S(=O)(=O)c3ccccc3)ccc2n1", 0),
    ("Cc1cc(O)cc(-c2nn(C)cc2-c2cc(N3CCOCC3)nc(-c3cccnc3)n2)c1", 0),
]

(Q) Just curious, what result did NC(N)=N/N=C/c1c(-c2cccs2)nc2n1CCS2 get here?
(A) 0

(Q) Just curious, what result did O=C1c2ccccc2-c2c1c1ccc3ccccc3c1n2-c1ccccc1 get here?
(A) 0

(Q) Just curious, what result did Cc1nc2sc(C(=O)Nc3cccc(Cl)c3C)c(N)c2cc1C(O)c1ccccc1 (stereo unspecified) get here?
(A) 1

(Q) Just curious, what result did N#CC1=C(N)Oc2c(ccc3cccnc23)C1c1ccccc1 (stereo unspecified) get here?
(A) 0

###

System: CCRF-CEM leukemia
assay: NCI tumour cell line growth inhibition, 48 h
quantity: TGI

Answered examples (8):
# compound, assay system, TGI
measured = [
    ("CCOc1ccc2c(c1)[n+]([O-])c(-c1ccc([N+](=O)[O-])cc1)c(N)[n+]2[O-]", "CCRF-CEM leukemia", "> 100 µM"),
    ("CN1CCC(n2cnc(-c3ccc(F)cc3)c2-c2ccnc(Nc3ccccc3)n2)CC1", "CCRF-CEM leukemia", "> 25 µM"),
    ("CC(C)(C)COS(=O)OCC(C)(C)C", "CCRF-CEM leukemia", "> 100 µM"),
    ("C=CC(=O)OCCCS(=O)(=O)[O-].C=CC(=O)OCCCS(=O)(=O)[O-].NC1CCCCC1N.[Pt+4]", "CCRF-CEM leukemia", "> 25 µM"),
    ("CC(C)CCCC(C)[C@H]1CCC2C3CC=C4C[C@@H](OC(=O)CC(CC(=O)[O-])C(=O)[O-])CC[C@]4(C)C3CC[C@@]21C.N.N.[Pt+4] (stereo partly drawn)", "CCRF-CEM leukemia", "> 100 µM"),
    ("CC[C@H](C)C(=O)O[C@H]1C[C@@H](C)C=C2C=C[C@H](C)[C@H](CC[C@@H]3C[C@@H](O)CC(=O)O3)[C@H]21", "CCRF-CEM leukemia", "> 100 µM"),
    ("COc1ccc(C(=O)c2cc(C)c(OC)c(C)c2)c(OC)c1OC(=O)C(Cl)Cl", "CCRF-CEM leukemia", "> 100 µM"),
    ("CCN(CC)CCOc1ccccc1-n1c(C)ccc1-c1ccccc1", "CCRF-CEM leukemia", "48.6 µM"),
]

I have 3 compounds here; please give me TGI for each one.
1. CCCCSCCC(N)P(=O)(O)O (stereo not drawn)
2. NC(=S)NN=C1Cc2ccccc2C1
3. O=C1C2CCCCC2C(=O)N1n1c(Cc2ccccc2)n[nH]c1=O (stereo not drawn)

(A)
> 100 µM
> 100 µM
> 100 µM

I have 2 compounds here; please give me TGI for each one.
1. CCOC(=O)/C(=C/c1ccccc1)N(CC)CC
2. O[C@]12c3ccccc3C1CCCC2N1CCOCC1 (stereo partly drawn)

(A)
1. > 100 µM
2. > 100 µM

###

Record form. Attribute: TGI. Fill in for each entry.
System: CCRF-CEM leukemia
assay: NCI tumour cell line growth inhibition, 48 h

# molecule, quantity, result
measured = [
    ("CCCCc1n(Cc2ccc3ccccc3n2)cc[n+]1Cc1ccc2ccccc2c1", "TGI", "4.61 µM"),
    ("Cc1nc2sc(C(=O)Nc3cccc(Cl)c3C)c(N)c2cc1C(O)c1ccccc1 (configuration not stated)", "TGI", "> 100 µM"),
    ("COC(OC)[C@@H]1OC[C@H](n2ccc(=O)[nH]c2=O)[C@H]1O", "TGI", "> 100 µM"),
    ("Cn1c(=O)c2[nH]c(CCS)nc2n(C)c1=O", "TGI", "> 100 µM"),
    ("OC1CCSc2ccccc21 (configuration not stated)", "TGI", "> 100 µM"),
]

I have 7 molecules here; please give me TGI for each one.
1. CC(C)C1COC(C(C)(C)C2=N[C@@H](C(C)C)CO2)=N1 (some centres not stated)
2. CCC1C[N+]2=C(c3cc(OC)c(OC)cc3CC2)c2c1cc1n2CCc2cc(OC)c(OC)cc2-1 (configuration not stated)
3. C#C[C@@H](OC(=O)c1ccc([N+](=O)[O-])cc1)[C@@H]1C[C@H]2O[C@@H]([C@H](C/C=C/CC)OC(=O)c3ccc([N+](=O)[O-])cc3)C[C@H]2O1
4. O=C1c2ccccc2C(=O)c2c1sc1nc3ccccc3n21
5. C=C(CN(C)C)C(=O)c1ccccc1Cl
6. COc1c(OC)c(OC)c2c(=O)c(OC)c(-c3ccc4c(c3)OCO4)oc2c1OC
7. NC(=O)/C=C/c1c[nH]c2nccnc12

(A)
["> 100 µM", "42.4 µM", "> 100 µM", "5.48 µM", "44.3 µM", "> 100 µM", "7.4 µM"]
